study system: recombinant soluble homotrimeric HA of A/Solomon Islands/3/06 (H1N1) (Influenza A virus A/Solomon Islands/3/2006 (H1N1))
assay method text: HA microarray, BCC supernatant
assay conditions: remark: other sources report otherwise
Catalogue of binders with associated log10 Trimeric HA Binding RLU
quantity name: log10 Trimeric HA Binding RLU (log10 of the value in RLU)

{"binder": "TCN-521 (3280_D18) (antibody, V domains shown) VH: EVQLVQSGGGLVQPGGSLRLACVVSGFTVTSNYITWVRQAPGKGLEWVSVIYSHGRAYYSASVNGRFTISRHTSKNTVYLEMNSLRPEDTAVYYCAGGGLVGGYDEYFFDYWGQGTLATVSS VL: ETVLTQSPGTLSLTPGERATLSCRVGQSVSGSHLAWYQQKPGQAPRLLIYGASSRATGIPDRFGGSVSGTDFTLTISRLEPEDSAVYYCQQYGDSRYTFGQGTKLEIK", "log10 Trimeric HA Binding RLU": 4.60}
{"binder": "TCN-528 (5087_P17) (antibody, V domains shown) VH: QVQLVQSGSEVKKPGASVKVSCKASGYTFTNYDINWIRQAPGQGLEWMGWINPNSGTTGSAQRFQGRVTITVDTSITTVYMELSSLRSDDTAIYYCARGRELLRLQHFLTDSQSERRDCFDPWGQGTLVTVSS VL: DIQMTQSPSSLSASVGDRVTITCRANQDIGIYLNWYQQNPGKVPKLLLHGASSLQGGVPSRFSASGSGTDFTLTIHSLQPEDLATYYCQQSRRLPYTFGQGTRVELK", "log10 Trimeric HA Binding RLU": 4.65}
{"binder": "TCN-557 (5081_A04) (antibody, V domains shown) VH: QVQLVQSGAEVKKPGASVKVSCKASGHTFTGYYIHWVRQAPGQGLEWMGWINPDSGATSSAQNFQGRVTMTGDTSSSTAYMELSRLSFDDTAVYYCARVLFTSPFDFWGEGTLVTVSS VL: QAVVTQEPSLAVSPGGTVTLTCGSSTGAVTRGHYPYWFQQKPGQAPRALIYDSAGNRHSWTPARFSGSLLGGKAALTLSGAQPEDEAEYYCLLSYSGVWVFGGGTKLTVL", "log10 Trimeric HA Binding RLU": 4.61}
{"binder": "TCN-539 (5056_A08) (antibody, V domains shown) VH: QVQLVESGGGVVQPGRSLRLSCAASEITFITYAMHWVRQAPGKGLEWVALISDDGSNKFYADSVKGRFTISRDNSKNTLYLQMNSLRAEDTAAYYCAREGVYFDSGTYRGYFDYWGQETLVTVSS VL: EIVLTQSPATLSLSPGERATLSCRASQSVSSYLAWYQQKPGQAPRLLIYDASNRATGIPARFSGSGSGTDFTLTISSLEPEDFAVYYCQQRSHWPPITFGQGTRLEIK", "log10 Trimeric HA Binding RLU": 2.38}
{"binder": "TCN-523 (5248_A17) (antibody, V domains shown) VH: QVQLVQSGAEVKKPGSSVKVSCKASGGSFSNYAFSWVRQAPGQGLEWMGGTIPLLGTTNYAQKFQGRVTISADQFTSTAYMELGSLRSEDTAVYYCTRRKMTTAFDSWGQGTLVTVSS VL: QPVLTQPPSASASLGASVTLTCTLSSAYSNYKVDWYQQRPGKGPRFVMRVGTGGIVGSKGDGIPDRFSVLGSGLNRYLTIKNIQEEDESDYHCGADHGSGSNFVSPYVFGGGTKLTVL", "log10 Trimeric HA Binding RLU": 4.58}
{"binder": "TCN-553 (5261_C18) (antibody, V domains shown) VH: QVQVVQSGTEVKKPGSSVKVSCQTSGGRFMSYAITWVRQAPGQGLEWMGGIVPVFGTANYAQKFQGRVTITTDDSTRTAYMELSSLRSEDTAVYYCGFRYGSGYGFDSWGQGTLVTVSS VL: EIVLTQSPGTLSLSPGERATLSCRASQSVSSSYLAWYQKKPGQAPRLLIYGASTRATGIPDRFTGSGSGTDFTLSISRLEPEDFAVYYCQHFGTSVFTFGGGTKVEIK", "log10 Trimeric HA Binding RLU": 4.21}
{"binder": "TCN-550 (5096_F06) (antibody, V domains shown) VH: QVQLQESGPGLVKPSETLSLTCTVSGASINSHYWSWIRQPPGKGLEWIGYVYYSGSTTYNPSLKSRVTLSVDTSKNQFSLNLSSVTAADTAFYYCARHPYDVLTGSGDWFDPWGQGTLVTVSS VL: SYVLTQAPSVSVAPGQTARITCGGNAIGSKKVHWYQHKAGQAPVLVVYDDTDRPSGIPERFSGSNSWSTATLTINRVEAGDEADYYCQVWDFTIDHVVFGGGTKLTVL", "log10 Trimeric HA Binding RLU": 2.31}
{"binder": "TCN-551 (5243_D01) (antibody, V domains shown) VH: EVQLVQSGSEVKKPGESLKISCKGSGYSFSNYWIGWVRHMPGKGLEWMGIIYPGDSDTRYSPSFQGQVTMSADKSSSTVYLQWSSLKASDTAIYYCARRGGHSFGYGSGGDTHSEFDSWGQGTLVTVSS VL: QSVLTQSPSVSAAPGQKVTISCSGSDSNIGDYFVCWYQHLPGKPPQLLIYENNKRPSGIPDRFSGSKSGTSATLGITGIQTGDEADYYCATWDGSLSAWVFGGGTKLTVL", "log10 Trimeric HA Binding RLU": 4.73}
{"binder": "TCN-563 (5237_B21) (antibody, V domains shown) VH: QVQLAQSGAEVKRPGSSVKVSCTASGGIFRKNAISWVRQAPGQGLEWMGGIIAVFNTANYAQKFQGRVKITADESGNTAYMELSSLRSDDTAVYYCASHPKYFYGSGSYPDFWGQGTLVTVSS VL: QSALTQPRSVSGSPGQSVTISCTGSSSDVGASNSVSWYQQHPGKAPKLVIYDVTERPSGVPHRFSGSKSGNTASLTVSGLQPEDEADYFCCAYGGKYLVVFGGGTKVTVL", "log10 Trimeric HA Binding RLU": 4.48}
{"binder": "TCN-522 (3212_I12) (antibody, V domains shown) VH: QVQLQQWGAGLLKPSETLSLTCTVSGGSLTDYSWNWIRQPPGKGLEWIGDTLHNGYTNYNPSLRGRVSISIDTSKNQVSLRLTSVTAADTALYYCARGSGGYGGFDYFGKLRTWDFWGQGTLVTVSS VL: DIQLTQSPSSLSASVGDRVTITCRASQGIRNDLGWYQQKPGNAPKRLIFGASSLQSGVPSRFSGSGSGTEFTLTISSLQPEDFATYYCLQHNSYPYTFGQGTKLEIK", "log10 Trimeric HA Binding RLU": 4.59}
